- tested.target: T1, Human CD47-C33G (human, UniProt Q08722 19-135)
- T1 construct: also called CD47 mutein with C33G mutation
- T1 sequence (Q08722 19-135 C33G limits assumed): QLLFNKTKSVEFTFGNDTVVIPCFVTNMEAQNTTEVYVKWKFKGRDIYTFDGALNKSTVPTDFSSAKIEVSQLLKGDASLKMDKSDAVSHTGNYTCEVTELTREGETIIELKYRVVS
- assay.notes: SPR, IgG captured, CD47 in flow; exp 2;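 further: rates derived from association and dissociation curves, KD estimated from them, C33G mutein used to avoid CD47 IgV homodimers for true monovalent affinity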
experimental.readout: kon (M⁻¹ s⁻¹)
Numeric answer only, unit M⁻¹ s⁻¹ assumed.

Below, each entry is followed by its recorded kon result.
{"columns": ["binder", "measured.result"],
 "data": [
  ["108VH10 / 108VL10.Md (antibody, V domains shown, 4D5-framework series; constant regions not restated for this series; also called VH10 VL10.Md) VH: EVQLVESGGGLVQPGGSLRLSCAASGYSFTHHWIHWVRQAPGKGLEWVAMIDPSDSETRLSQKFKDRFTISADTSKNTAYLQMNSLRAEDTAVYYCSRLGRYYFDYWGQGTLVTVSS VL: DIQMTQSPSSLSASVGDRVTITCRASENVGTYISWYQQKPGKAPKLLIYGASNRYSGVPSRFSGSRSGTDFTLTISSLQPEDFATYYCGESYGHLYTFGQGTKVEIK", 86000],
  ["108VH10.Mb / 108VL10.M1 (antibody, V domains shown, 4D5-framework series; constant regions not restated for this series; also called VH10.Mb VL10.M1) VH: EVQLVESGGGLVQPGGSLRLSCAASGYSFTHHWMHWVRQAPGKGLEWVAMIDPSDSETRLSQKFKDRFTISADTSKNTAYLQMNSLRAEDTAVYYCSRLGRYYFDYWGQGTLVTVSS VL: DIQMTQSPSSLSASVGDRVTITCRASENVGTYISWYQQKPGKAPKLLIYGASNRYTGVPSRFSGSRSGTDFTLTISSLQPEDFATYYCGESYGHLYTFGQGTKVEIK", 89000]
]}

Attention now shifts to the item below.
Q. Can you look up the measured kon of 108VH10.Ma / 108VL10.M1 (antibody, V domains shown, 4D5-framework series; constant regions not restated for this series; also called VH10.Ma VL10.M1) VH: EVQLVESGGGLVQPGGSLRLSCAASGFTFSHHWIHWVRQAPGKGLEWVAMIDPSDSETRLSQKFKDRFTISADTSKNTAYLQMNSLRAEDTAVYYCSRLGRYYFDYWGQGTLVTVSS VL: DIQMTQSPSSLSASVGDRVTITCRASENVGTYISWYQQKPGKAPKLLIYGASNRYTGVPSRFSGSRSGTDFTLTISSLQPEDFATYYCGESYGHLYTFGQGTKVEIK for me?
A. 82000
